Substrate: CC(C)CC(=O)C(=O)O
Test: purified protein
Type: biochemical, Saccharomyces cerevisiae
Settings: forward reaction, 100 mM Glu, 50 μM PLP, 100 mM NH4Cl, 0.25 mM NADH, 200 mM potassium phosphate pH 8.0, 30°C, apparent
readout-label: kcat/Km
Please state the value followed by its unit.

input: Please report the recorded kcat/Km for Bat2^WT (Saccharomyces cerevisiae S288C) (protein, N-terminal His-tag (pET53-dest, tag not reported cut); E. coli BL21(DE3); dimer) MTLAPLDASKVKITTTQHASKPKPNSELVFGKSFTDHMLTAEWTAEKGWGTPEIKPYQNLSLDPSAVVFHYAFELFEGMKAYRTVDNKITMFRPDMNMKRMNKSAQRICLPTFDPEELITLIGKLIQQDKCLVPEGKGYSLYIRPTLIGTTAGLGVSTPDRALLYVICCPVGPYYKTGFKAVRLEATDYATRAWPGGCGDKKLGANYAPCVLPQLQAASRGYQQNLWLFGPNNNITEVGTMNAFFVFKDSKTGKKELVTAPLDGTILEGVTRDSILNLAKERLEPSEWTISERYFTIGEVTERSKNGELLEAFGSGTAAIVSPIKEIGWKGEQINIPLLPGEQTGPLAKEVAQWINGIQYGETEHGNWSRVVTDLN .
output: 54700 M⁻¹ s⁻¹
